assay overview: cytotoxicity in Drosophila l(2)mbn cells
Assay type: cell-based
condition set: Drosophila, l(2)mbn cells (larval blood cell-derived), 4 µM, replicate 2, relative to DMSO 1%, read-out: % viability, viability 2
parameter: viability at 4 µM (%)
Give the value in % but do not write % after it.

Lab book: viability at 4 µM of C=C1CCC2C3(C)CC(C=C(C)C)OC3CCC2(C)C1Cc1c(OC)oc(C)c(C)c1=O (stereo not shown) noted as 9.14

Short answer for C=C1CCC2C(C)(CCC=C(C)C)C(O)CCC2(C)C1Cc1c(OC)oc(C)c(C(=O)OC)c1=O (stereo not shown) : viability at 4 µM was 16

For record C=C1CCC2C(C)(CCC=C(C)C)C(O)CCC2(C)C1Cc1c(OC)oc(CO)c(C(=O)OC)c1=O (stereo not shown) the listed viability at 4 µM is 79.1

The reported viability at 4 µM of the molecule C=C1CC[C@H]2[C@]3(C)C[C@H](C=C(C)C)O[C@H]3CC[C@]2(C)[C@@H]1Cc1c(O)c(C)c(C)oc1=O was 8.06

Per the records, this molecule ( C=C1CC[C@H]2[C@]3(C)C[C@H](C=C(C)C)O[C@H]3CC[C@]2(C)[C@@H]1Cc1c(OC)oc(CO)c(C)c1=O ) has viability at 4 µM equal to 91.8

For reference, reported viability at 4 µM for C=C1CCC2C(C)(CC(=O)C=C(C)C)C(O)CCC2(C)C1Cc1c(OC)oc(C)c(C)c1=O (stereo not shown) stands at 148

So, C=C1CC[C@@H]2[C@](C)(CC[C@H]3O[C@H](C=C(C)C)C[C@@]23C)[C@@H]1Cc1c(OC)oc(CO)c(C)c1=O ? Its viability at 4 µM was 2.17

// viability at 4 µM lookup, molecule = C=C1CC[C@@H]2[C@](C)(CC[C@H]3O[C@H](C=C(C)C)C[C@@]23C)[C@@H]1Cc1c(O)c(C)c(C)oc1=O , result: 9.05

Looking up C=C1CC[C@H]2[C@]3(C)C[C@@H](C=C(C)C)O[C@H]3CC[C@]2(C)[C@@H]1Cc1c(O)c(C)c(C)oc1=O , I see its viability at 4 µM listed as 7.53

So, C=C1CCC2C(C)(CC(=O)C=C(C)C)C(O)CCC2(C)C1Cc1c(O)c(C)c(C)oc1=O (stereo not shown) ? Its viability at 4 µM was 131

* * *

target of assay: Aβ42 (Homo sapiens)
Sequence (P05067 672-713): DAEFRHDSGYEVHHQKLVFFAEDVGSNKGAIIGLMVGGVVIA
assay overview: Th-T (thioflavin-T) assay of Aβ42 aggregation
Type: biochemical
condition set: time course, reading M65
parameter: Th-T fluorescence, mean of three wells
Answer with a number only.

>>> recorded_result("C=C1CC[C@H]2[C@]3(C)C[C@@H](C=C(C)C)O[C@H]3CC[C@]2(C)[C@@H]1Cc1c(O)c(C)c(C)oc1=O [Compound 5, subglutinol A]")
2.696
>>> recorded_result("C=C1CC[C@@H]2[C@](C)(CC[C@H]3O[C@H](C=C(C)C)C[C@@]23C)[C@@H]1Cc1c(O)c(C)c(C)oc1=O [Compound 10, higginsianin A]")
3.1417
>>> recorded_result("C=C1CC[C@H]2[C@]3(C)C[C@H](C=C(C)C)O[C@H]3CC[C@]2(C)[C@@H]1Cc1c(OC)oc(CO)c(C)c1=O [Compound 18]")
3.959
>>> recorded_result("C=C1CCC2C(C)(CCC=C(C)C)C(=O)CCC2(C)C1Cc1c(O)c(C)c(C)oc1=O (stereo not drawn) [Compound 8]")
2.24
>>> recorded_result("C=C1CC[C@H]2[C@]3(C)C[C@H](C=C(C)C)O[C@H]3CC[C@]2(C)[C@@H]1Cc1c(O)c(C)c(C)oc1=O [Compound 6, subglutinol B]")
3.114

Next:
Recorded result, C=C1CC[C@H]2[C@]3(C)C[C@H](C=C(C)C)O[C@H]3CC[C@]2(C)[C@@H]1Cc1c(OC)oc(C)c(C)c1=O [Compound 24] , Th-T fluorescence, mean of three wells: 4.128
